test: Pharmacokinetics and bioavailability in male mice after a single dose; type: in vivo; details: mouse, plasma, oral, 10 mg/kg
MEASURED PARAMETER: Tmax
Report field: quantity (unit follows the number).

Below, each entry is followed by its recorded Tmax result.
INSERT INTO results (molecule, measured_result) VALUES
  ('CC(C)c1cnc(-c2cc(Cl)ccc2F)cc1Nc1ccncc1C(=O)NC[C@H](C)O (single isomer, unassigned)', '30 min'),
  ('COc1cnc(-c2cc(Cl)ccc2F)cc1Nc1ccncc1C(=O)NC[C@H](C)O (single isomer, unassigned) [13a]', '15 min'),
  ('CC(C)c1cnc(-c2cc(Cl)ccc2F)cc1Nc1ccncc1C(=O)NCCN', '60 min');

q: Quick check: Tmax of C[C@H](O)CNC(=O)c1cnccc1Nc1cc(-c2cc(Cl)ccc2F)ncc1N(C)C (single isomer, unassigned) [16a] ?
a: 30 min

---

# maps each entry to its concentration at 0.5 h
test: Plasma and brain concentrations at 0.5 and 1 h in mice; format: in vivo; details: male, mouse, brain, 10 mg/kg; PO, 0.5 h; read-out: Brain Concentration
Just the number please, in nM, no unit attached.

INSERT INTO results (compound, units_of_measure, measured_result) VALUES
  ('CC(C)c1cnc(-c2cc(Cl)ccc2F)cc1Nc1ccncc1C(=O)NC(CO)CO [compound 22]', 'nM', 20);

q: Quick check: concentration at 0.5 h of C[C@H](O)CNC(=O)c1cnccc1Nc1cc(-c2cc(Cl)ccc2F)ncc1N(C)C (single isomer, unassigned) [16a] ?
a: 48

---

# maps each entry to its clearance
assay: Pharmacokinetics and bioavailability in male mice after a single dose; type: in vivo; settings: mouse, plasma, intravenous, 2 mg/kg
Just the number please, in mL/min/kg, no unit attached.

INSERT INTO assay_data (molecule, measured_result) VALUES
  ('CC(C)c1cnc(-c2cc(Cl)ccc2F)cc1Nc1ncncc1C(=O)NC[C@H](C)O (single isomer, unassigned) [12a]', 19.8),
  ('C=C(C)c1cnc(-c2cc(Cl)ccc2F)cc1Nc1ccncc1C(=O)NC[C@H](C)O (single isomer, unassigned) [3a]', 12.8),
  ('C[C@H](O)CNC(=O)c1cnccc1Nc1cc(-c2cc(Cl)ccc2F)ncc1N(C)C (single isomer, unassigned) [16a]', 17);

// next entry
q: Quick check: clearance of C=C(C)c1cnc(-c2cc(Cl)ccc2F)cc1Nc1ccncc1C(=O)NCCO [compound 26] ?
a: 44.3

---

test: Plasma and brain concentrations at 0.5 and 1 h in mice; format: in vivo; conditions: male, mouse, plasma, 10 mg/kg; PO, 0.5 h; read-out: Plasma Concentration
# maps each entry to its concentration at 0.5 h
Just the number please, in µM, no unit attached.

INSERT INTO measurements (molecule, units_of_measure, measured_result) VALUES
  ('CC(C)c1cnc(-c2cc(Cl)ccc2F)cc1Nc1ccncc1C(=O)NCCN', 'µM', 0.164),
  ('C[C@H](O)CNC(=O)c1cnccc1Nc1cc(-c2cc(Cl)ccc2F)ncc1N(C)C (single isomer, unassigned) [16a]', 'µM', 3.42);

// next entry
q: Quick check: concentration at 0.5 h of CC(C)c1cnc(-c2cc(Cl)ccc2F)cc1Nc1ccncc1C(=O)NC(CO)CO ?
a: 7.07

---

# maps each entry to its pIC50
target: ALK6 (BMPR1B) (Homo sapiens (Human), UniProt O00238); experiment: In vitro kinase assay, ALK6; format: biochemical; settings: 10 μM ATP; read-out: Inhibition of ALK6 IC50
Sequence (O00238 14-502): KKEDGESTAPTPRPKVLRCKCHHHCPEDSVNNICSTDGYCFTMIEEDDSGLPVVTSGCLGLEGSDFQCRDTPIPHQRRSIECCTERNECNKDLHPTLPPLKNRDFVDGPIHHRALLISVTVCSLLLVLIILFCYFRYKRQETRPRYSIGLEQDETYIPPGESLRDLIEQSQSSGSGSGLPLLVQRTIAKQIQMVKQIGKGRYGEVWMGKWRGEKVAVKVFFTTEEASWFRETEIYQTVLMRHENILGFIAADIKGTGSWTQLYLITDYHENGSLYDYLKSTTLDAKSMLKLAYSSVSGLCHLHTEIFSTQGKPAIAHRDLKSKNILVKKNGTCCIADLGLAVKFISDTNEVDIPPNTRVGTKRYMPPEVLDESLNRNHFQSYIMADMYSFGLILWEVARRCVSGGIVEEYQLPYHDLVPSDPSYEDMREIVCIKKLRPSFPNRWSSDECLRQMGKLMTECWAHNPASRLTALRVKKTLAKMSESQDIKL
pIC50: −log10 of the molar value.

Below, each entry is followed by its recorded pIC50 result.
INSERT INTO results (compound, measured_parameter, measured_result) VALUES
  ('C=C(C)c1cnc(-c2cc(Cl)ccc2F)cc1Nc1ccncc1C(=O)NC[C@H](C)O (single isomer, unassigned)', 'pIC50', '< 4.00'),
  ('CC(C)c1cnc(-c2ncccc2F)cc1Nc1ccnc2[nH]ccc12', 'pIC50', 4.82),
  ('CC(C)c1cnc(-c2ccccc2)cc1Nc1ccncc1C(=O)NC[C@H](C)O', 'pIC50', '< 3.00'),
  ('C[C@H](O)CNC(=O)c1cnccc1Nc1cc(-c2cc(Cl)ccc2F)ncc1C1CC1', 'pIC50', '< 5.00'),
  ('C=C(C)c1cnc(-c2cc(Cl)ccc2F)cc1Nc1ccncc1C(=O)NCCO', 'pIC50', '< 4.00'),
  ('C[C@H](O)CNC(=O)c1cnccc1Nc1cc(-c2cc(Cl)ccc2F)ncc1N(C)C (single isomer, unassigned) [16a]', 'pIC50', '< 3.00'),
  ('C=C(C)c1cnc(-c2cc(Cl)ccc2F)cc1Nc1ccncc1C(=O)N[C@@H](CC)CO (single isomer, unassigned) [24a]', 'pIC50', '< 4.00'),
  ('CC(C)c1cnc(-c2ncccc2F)cc1Nc1ncnc2[nH]ccc12', 'pIC50', 4.87);

// next entry
q: Quick check: pIC50 of C=C(C)c1c(Nc2ccncc2C(=O)NC[C@H](C)O)cc(-c2cc(Cl)ccc2F)nc1N (single isomer, unassigned) [23a] ?
a: < 4.00

---

assay: Pharmacokinetics and bioavailability in male mice after a single dose; assay type: in vivo; conditions: mouse, plasma, oral, 10 mg/kg, read-out: Terminal t1/2 (converted)
MEASURED PARAMETER: half-life (h)
Just the number please, in h, no unit attached.

INSERT INTO measurements (molecule, measured_parameter, measured_result) VALUES
  ('CCc1cnc(-c2cc(Cl)ccc2F)cc1Nc1ccncc1C(=O)NC[C@H](C)O (single isomer, unassigned) [11a]', 'half-life', 1.65),
  ('COc1cnc(-c2cc(Cl)ccc2F)cc1Nc1ccncc1C(=O)NC[C@H](C)O (single isomer, unassigned) [13a]', 'half-life', 2.85),
  ('C=C(C)c1cnc(-c2cc(Cl)ccc2F)cc1Nc1ccncc1C(=O)NC(C)(C)CO', 'half-life', 1.26),
  ('C=C(C)c1cnc(-c2cc(Cl)ccc2F)cc1Nc1ccncc1C(=O)NCCO', 'half-life', 1.66),
  ('C=C(C)c1cnc(-c2cc(Cl)ccc2F)cc1Nc1ccncc1C(=O)NC[C@H](C)O (single isomer, unassigned)', 'half-life', 3.85);

q: Quick check: half-life of C[C@H](O)CNC(=O)c1cnccc1Nc1cc(-c2cc(Cl)ccc2F)ncc1N(C)C (single isomer, unassigned) [16a] ?
a: 2.36

q: Also check CC(C)c1cnc(-c2cc(Cl)ccc2F)cc1Nc1ncncc1C(=O)NC[C@H](C)O (single isomer, unassigned) [12a]
a: 1.72

---

test: Plasma and brain concentrations at 0.5 and 1 h in mice; type: in vivo; details: male, mouse, brain; IV (2 mg/kg), 0.5 h; read-out: Brain concentration
MEASURED PARAMETER: concentration at 0.5 h (ng/mL)
Just the number please, in ng/mL, no unit attached.

INSERT INTO assay_data (molecule, measured_parameter, measured_result) VALUES
  ('CC(C)c1cnc(-c2cc(Cl)ccc2F)cc1Nc1ccncc1C(=O)NC[C@H](C)O (single isomer, unassigned) [2a]', 'concentration at 0.5 h', 73.2);

q: Quick check: concentration at 0.5 h of C=C(C)c1cnc(-c2cc(Cl)ccc2F)cc1Nc1ccncc1C(=O)NC[C@H](C)O (single isomer, unassigned) [3a] ?
a: 173

---

test: Pharmacokinetics and bioavailability in male mice after a single dose; type: in vivo; details: mouse, plasma, oral, 10 mg/kg
MEASURED PARAMETER: Cmax (nM)
Just the number please, in nM, no unit attached.

INSERT INTO assay_data (compound, measured_parameter, units_of_measure, measured_result) VALUES
  ('CC(C)c1cnc(-c2cc(Cl)ccc2F)cc1Nc1ccncc1C(=O)NC[C@H](C)O (single isomer, unassigned)', 'Cmax', 'nM', 1570),
  ('CC(C)c1cnc(-c2cc(Cl)ccc2F)cc1Nc1ccncc1C(=O)NC(CO)CO', 'Cmax', 'nM', 7070),
  ('CC(C)c1cnc(-c2cc(Cl)ccc2F)cc1Nc1ccncc1C(=O)NCCN', 'Cmax', 'nM', 198),
  ('C=C(C)c1cnc(-c2cc(Cl)ccc2F)cc1Nc1ccncc1C(=O)NC[C@H](C)O (single isomer, unassigned)', 'Cmax', 'nM', 1650),
  ('CCc1cnc(-c2cc(Cl)ccc2F)cc1Nc1ccncc1C(=O)NC[C@H](C)O (single isomer, unassigned) [11a]', 'Cmax', 'nM', 3480),
  ('CC(C)c1cnc(-c2cc(Cl)ccc2F)cc1Nc1ncncc1C(=O)NC[C@H](C)O (single isomer, unassigned) [12a]', 'Cmax', 'nM', 4280),
  ('C=C(C)c1cnc(-c2cc(Cl)ccc2F)cc1Nc1ccncc1C(=O)NCCO', 'Cmax', 'nM', 1290);

// next entry
q: Quick check: Cmax of COc1cnc(-c2cc(Cl)ccc2F)cc1Nc1ccncc1C(=O)NC[C@H](C)O (single isomer, unassigned) [13a] ?
a: 1600
